src = PubChem BioAssay AID488975

measured_on: High affinity choline transporter 1 (Homo sapiens) (UniProt Q9GZV3)
Sequence (Q9GZV3 whole entry, looked up): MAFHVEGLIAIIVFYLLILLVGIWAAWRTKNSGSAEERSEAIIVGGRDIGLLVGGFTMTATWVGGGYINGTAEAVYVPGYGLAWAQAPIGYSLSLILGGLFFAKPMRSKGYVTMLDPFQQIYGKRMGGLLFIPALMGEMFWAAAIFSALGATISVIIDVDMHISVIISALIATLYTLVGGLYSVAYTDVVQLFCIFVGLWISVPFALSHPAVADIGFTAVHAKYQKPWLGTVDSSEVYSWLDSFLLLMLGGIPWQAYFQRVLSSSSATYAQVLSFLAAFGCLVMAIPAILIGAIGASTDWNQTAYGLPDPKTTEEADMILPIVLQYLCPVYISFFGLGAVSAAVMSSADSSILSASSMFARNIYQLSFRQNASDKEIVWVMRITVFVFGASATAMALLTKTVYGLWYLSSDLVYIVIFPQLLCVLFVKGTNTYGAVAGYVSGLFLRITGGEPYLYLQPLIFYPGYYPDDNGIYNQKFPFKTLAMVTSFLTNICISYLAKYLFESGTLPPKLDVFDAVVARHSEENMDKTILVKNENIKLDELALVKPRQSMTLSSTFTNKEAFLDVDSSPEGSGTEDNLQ
protocol_text: inhibitors of human choline transporter CHT (AID 488975);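 as to B-score: choline stimulus applied at its EC90 after an EC20 pre-addition; B-score computed on integrated fluorescence ratio after choline addition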
experimental_parameters: CHT-expressing cells, membrane potential dye, choline response, at 10 µM; active compounds read low
Screen size: about 310,000 compounds; about 2,600 (0.84%) were called active. The sample as a whole holds a higher share of actives than the screen did.
experimental_endpoint: B-score

compound	experimental_endpoint	data_value
Nc1c(C(=O)Nc2ccc3c(c2)OCCO3)nnn1Cc1ccccc1	B-score	inactive
OCc1ccc(-c2ccccc2)c(-c2ccccc2)c1	B-score	inactive
O=C(CCCn1c(SCC(=O)c2ccccc2)nc2ccccc2c1=O)NCC1CCCO1 (centres undefined)	B-score	inactive
CCCCn1c(SCC(=O)NCC2CCCO2)nc2ccc(N3CCOCC3)cc2c1=O (centres undefined)	B-score	-5.48 (active)
